Data provenance is patent US20250215014A1.

For reference, IC50 measured on DGKz (Homo sapiens (Human)):

Below, 5 molecules whose answers are already recorded.
CC[C@@H]1CN(c2nc3nncn3c3ccc(C#N)nc23)[C@@H](C)CN1[C@@H](CC)c1ccc(S(F)(F)(F)(F)F)cc1 (stereo in doubt)    < 100 nM
Cn1c(=O)nc(N2CCC3(CC2)CC(c2ccc(OC(F)(F)F)cc2)=NO3)c2nc(C#N)ccc21    < 100 nM
CC[C@H]1CN([C@H](CC)c2nc(C3CC3)no2)[C@H](CC)CN1c1nc2nncn2c2ccc(C#N)nc12    100 to 1000 nM
N#Cc1cc2c3c(n1)c(N1CCC4(CC1)CC(c1ccc(OC(F)(F)F)cc1)=NO4)nc(=O)n3CCO2    100 to 1000 nM
CC[C@@H]1CN2c3c(c(=O)n(C)c4ccc(C#N)nc34)OC[C@@H]2CN1[C@@H](CC)c1ccc(C(F)(F)F)cc1    > 1000 nM

Moving on to the next molecule.
Reported IC50 for CC[C@@H]1CN(c2nc3nncn3c3ccc(C#N)nc23)[C@@H](C)CN1[C@@H](CC)c1ccc(SC(F)(F)F)cc1 (stereo in doubt) : what is it?
< 100 nM

----------
Test system: PBMC
Experiment: Human PBMC IL-2 Assay
Type: cell-based
Conditions: anti-CD3/CD28 antibody, IL-2 level
pEC50: −log10 of the molar value.
measured-quantity: pEC50

Cn1c(=O)nc(N2CCC(Oc3ccc(OC(F)(F)F)cc3)CC2)c2nc(C#N)ccc21    6.00 to 6.30
CC[C@H]1C[C@@H](Oc2ccc(OC(F)(F)F)cc2)CCN1c1nc(=O)n(C)c2ccc(C#N)nc12    > 6.30
CC[C@@H]1C[C@@H](Oc2ccc(OC(F)(F)F)cc2)CCN1c1nc(=O)n(C)c2ccc(C#N)nc12 (stereo in doubt)    6.00 to 6.30
Cc1ccc2oc(C3(C)CCN(c4c(C#N)c(=O)n(C)c5ccc(C#N)nc45)CC3)nc2c1    > 6.30
Cn1c(=O)nc(N2CCC3(CC2)CC(c2ccccc2C(F)(F)F)=NO3)c2nc(C#N)ccc21    < 6.00

Could you now consider this next compound?
May I ask what pEC50 has been recorded for Cn1c(=O)c(C(N)=O)c(N2CCC3(CCN(c4ccc(OC(F)(F)F)cc4)C3)CC2)c2nc(C#N)ccc21 ?
< 6.00

----------
Lab note: IC50 readings collected with DGKa (Homo sapiens (Human), UniProt P23743) for the following compounds.
Sequence (P23743 whole entry): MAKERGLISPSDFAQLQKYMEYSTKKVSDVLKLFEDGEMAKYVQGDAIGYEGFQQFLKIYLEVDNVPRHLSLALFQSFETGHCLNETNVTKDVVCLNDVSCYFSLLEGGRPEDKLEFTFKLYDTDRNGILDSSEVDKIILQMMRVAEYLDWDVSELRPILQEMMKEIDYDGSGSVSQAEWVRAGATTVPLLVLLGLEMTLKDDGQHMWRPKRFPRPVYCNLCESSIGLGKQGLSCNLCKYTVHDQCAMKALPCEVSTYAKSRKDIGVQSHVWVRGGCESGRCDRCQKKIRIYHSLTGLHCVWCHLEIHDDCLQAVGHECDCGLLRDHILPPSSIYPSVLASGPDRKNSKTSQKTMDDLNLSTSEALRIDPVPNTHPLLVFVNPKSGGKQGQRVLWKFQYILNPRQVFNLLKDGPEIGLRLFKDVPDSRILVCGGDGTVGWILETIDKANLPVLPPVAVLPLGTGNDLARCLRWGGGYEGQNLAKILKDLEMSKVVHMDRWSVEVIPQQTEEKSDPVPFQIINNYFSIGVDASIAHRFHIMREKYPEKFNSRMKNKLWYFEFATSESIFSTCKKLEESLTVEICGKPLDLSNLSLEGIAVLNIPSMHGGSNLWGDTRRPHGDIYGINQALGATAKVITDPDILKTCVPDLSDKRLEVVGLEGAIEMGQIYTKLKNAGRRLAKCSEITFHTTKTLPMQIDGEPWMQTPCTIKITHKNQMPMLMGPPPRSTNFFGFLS

Example entries begin here.
CC[C@H]1CN([C@@H](CC)c2ccc(SC(F)(F)F)cc2)[C@H](CC)CN1c1nc2nncn2c2ccc(C#N)nc12 (single isomer, unassigned)    < 100 nM
CC[C@@H]1CN(c2nc(=O)n(C)c3ccc(C#N)nc23)[C@@H](C)CN1[C@H](c1ccc(F)cc1)c1ccc(SC(F)(F)F)cn1    < 100 nM
Cc1ccc2oc(C3CCN(c4nc(=O)n(C)c5ccc(C#N)nc45)CC3)nc2c1    > 1000 nM

Give the reported IC50 for Cn1c(=O)nc(N2CCC3(CCN(c4ccc(OC(F)(F)F)cc4)C3)CC2)c2nc(C#N)ccc21 (system: DGKa (Homo sapiens (Human), UniProt P23743)).
100 to 1000 nM

What about Cn1c(=O)nc(N2CCCc3c(C#CC4CC4)cccc32)c2nc(C#N)ccc21 [Compound 42] ?
< 100 nM

Please answer likewise for CC[C@@H]1C[C@H](c2nc3cc(C)ccc3o2)CCN1c1nc(=O)n(C)c2cc(O[C@H]3CCOC3)c(Cl)cc12
< 100 nM

Moving on to the next compound: Cn1c(=O)c(C(N)=O)c(N2CCC3(CN(c4ccc(OC(F)(F)F)cc4)C3)C2)c2nc(C#N)ccc21
< 100 nM

Cool, now CC[C@H]1CN([C@@H](CC)c2ccc(C(F)(F)F)cc2)[C@H](CC)CN1c1nc2nncn2c2ccc(C#N)nc12 (single isomer, unassigned) [Compound 109]
< 100 nM

How about CC[C@H]1CN([C@@H](CC)c2cccc(C(F)(F)F)c2)[C@H](CC)CN1c1nc2nncn2c2ccc(C#N)nc12 (stereo in doubt) ?
< 100 nM

Same question, CCC(c1ccc(C(F)(F)F)cc1)N1CCN(c2nc3nncn3c3ccc(C#N)nc23)C(CC)C1 (stereo not shown) this time
< 100 nM

Would you mind doing CC[C@@H]1CN2c3c(c(=O)n(C)c4ccc(C#N)nc34)OC[C@@H]2CN1[C@H](CC)c1ccc(SC(F)(F)F)cc1 as well?
< 100 nM

Similarly, CC[C@@H]1C[C@@H](Oc2ccc(OC(F)(F)F)cc2)CCN1c1nc(=O)n(C)c2ccc(C#N)nc12 (stereo in doubt) ?
> 1000 nM

Entry to check: CC[C@H]1CN([C@H](CC)c2ccc(S(F)(F)(F)(F)F)cc2)[C@H](CC)CN1c1nc(=O)n2c3c(cc(C#N)nc13)OCC2 (stereo in doubt)
100 to 1000 nM
